# TARGET_OR_TEST_SYSTEM: furin, P09958;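 note: purified furin at 1:10 enzyme:substrate in 50 mM HEPES pH 7.5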
# Sequence (P09958 whole entry): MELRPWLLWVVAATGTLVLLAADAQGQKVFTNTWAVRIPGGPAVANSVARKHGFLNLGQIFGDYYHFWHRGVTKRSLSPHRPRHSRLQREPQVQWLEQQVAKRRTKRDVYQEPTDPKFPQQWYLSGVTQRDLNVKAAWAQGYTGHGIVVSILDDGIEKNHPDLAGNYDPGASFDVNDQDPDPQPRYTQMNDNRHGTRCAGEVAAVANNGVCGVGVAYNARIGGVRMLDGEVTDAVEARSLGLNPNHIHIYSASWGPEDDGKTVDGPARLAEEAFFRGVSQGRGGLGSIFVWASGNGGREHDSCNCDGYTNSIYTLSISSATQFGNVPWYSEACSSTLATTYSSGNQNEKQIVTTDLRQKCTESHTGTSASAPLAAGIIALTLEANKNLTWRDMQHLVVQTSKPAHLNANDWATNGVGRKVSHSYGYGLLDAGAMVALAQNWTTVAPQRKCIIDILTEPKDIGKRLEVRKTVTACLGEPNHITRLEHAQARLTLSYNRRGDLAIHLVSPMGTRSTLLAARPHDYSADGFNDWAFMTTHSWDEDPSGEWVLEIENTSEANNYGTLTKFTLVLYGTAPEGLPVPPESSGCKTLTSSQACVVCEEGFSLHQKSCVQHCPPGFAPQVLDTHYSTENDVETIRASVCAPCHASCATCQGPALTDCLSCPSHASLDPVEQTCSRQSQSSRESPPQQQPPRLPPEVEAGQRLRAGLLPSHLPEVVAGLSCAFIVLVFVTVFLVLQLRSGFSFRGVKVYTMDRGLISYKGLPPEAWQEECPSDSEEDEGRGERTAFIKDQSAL
# ASSAY_PROTOCOL: furin cleavage Z-score vs untreated control; higher = more cleavage, active = 3.5 or more, inactive = 1 or less, 8 variable residues between constant flanks
# CONDITION: 7.5 min
The list shows a part of the results. How many sequences the whole screen found active is unknown.
The reader will find reported furin cleavage Z-score values listed item by item below.
Form rule: numeric answer, no unit written next to it.

Guide cases for furin cleavage Z-score, answers given:
SEQUENCE_DATA	furin cleavage Z-score
CARKKRRRESAGNASASA [FS-1903]	4.55
CADQDLVGWPAGNASASA [HC713]	-0.0765
CAYSQRWKRTAGNASASA [FS-904]	8.92

## Task State its furin cleavage Z-score for this sequence: CALQGREQLTAGNASASA [FS-1882]
## Result 0.515
